# Inhibition annotations
- System: Staphylococcus aureus
- condition-summary: Concentration 32 ug.mL-1;; ASSAY_TEST Inhibition of Bacterial Growth; detection method Absorption (OD600); MEDIA CAMHB; plate type 384well; NBS; CORNING #3640; time 18 hr
- Description: Antibacterial activity against Staphylococcus aureus MRSA ATCC 43300 (CO-ADD:GP_020); MIC in CAMBH media, using NBS plates, by OD(600)
Results with a measured potency or affinity are listed apart.
observed-property: Inhibition (%)

structure_as_smiles=Cc1ccccc1CN(c1ccc(C(C)C)cc1)S(=O)(=O)c1cccn2c(C)nnc12 target_or_test_system="Staphylococcus aureus" u=% data_value=9.54
structure_as_smiles=COc1cccc(-n2ccn3c(=O)n(Cc4ccc([N+](=O)[O-])cc4)nc3c2=O)c1 target_or_test_system="Staphylococcus aureus" u=% data_value=7.57
structure_as_smiles=Cc1ccc(-c2cc3c4nn(CC(=O)Nc5ccccc5F)c(=O)n4ccn3n2)cc1C target_or_test_system="Staphylococcus aureus" u=% data_value=-4
structure_as_smiles=COC(=O)c1sccc1NC(=O)Cn1nc2c(Oc3ccc(C)cc3)nc3ccccc3n2c1=O target_or_test_system="Staphylococcus aureus" u=% data_value=6.43
structure_as_smiles=COc1cccc(N(Cc2ccc(F)cc2)S(=O)(=O)c2ccc3nncn3c2)c1 target_or_test_system="Staphylococcus aureus" u=% data_value=-0.47
structure_as_smiles=CC1CCN(C(=O)Cn2nc3n(Cc4cccs4)c(=O)c4sccc4n3c2=O)CC1 target_or_test_system="Staphylococcus aureus" u=% data_value=3.66
structure_as_smiles=O=S(=O)(c1cccn2c(SCc3c(F)cccc3Cl)nnc12)N1CCCC1 target_or_test_system="Staphylococcus aureus" u=% data_value=5.67
structure_as_smiles=Cc1ccc(NC(=O)Cn2nc3c4cc(-c5ccc(C)c(C)c5)nn4ccn3c2=O)cc1 target_or_test_system="Staphylococcus aureus" u=% data_value=7.11
structure_as_smiles=COc1ccc(N2CCN(C(=O)Cn3nc4ccc(-c5ccccc5)nn4c3=O)CC2)cc1 target_or_test_system="Staphylococcus aureus" u=% data_value=15.35
structure_as_smiles=O=C(Cn1nc2c(N3CCOCC3)nccn2c1=O)Nc1cccc(C(F)(F)F)c1 target_or_test_system="Staphylococcus aureus" u=% data_value=4.69
structure_as_smiles=O=C(Cn1nc2ccc(C(=O)NCc3ccccc3)cn2c1=O)Nc1ccc2c(c1)OCO2 target_or_test_system="Staphylococcus aureus" u=% data_value=7.86
structure_as_smiles=Cc1cc2nn(CC(=O)N3CCCc4ccccc43)c(=O)n2c(Nc2ccc(F)cc2)n1 target_or_test_system="Staphylococcus aureus" u=% data_value=6.5

---

- System: Staphylococcus aureus
- condition-summary: Concentration 32 ug.mL-1;; ASSAY_TEST Inhibition of Bacterial Growth; detection method Absorption (OD600); MEDIA CAMHB; plate type 384well; NBS; CORNING #3640; time 18 hr
Entries with a potency or affinity are not part of this list.
Reported Inhibition values for the following compounds.
observed-property: Inhibition (%)

structure_as_smiles=COc1cccc(Oc2nccn3c(=O)n(CC(=O)Nc4cc(C)c(Cl)cc4OC)nc23)c1 target_or_test_system="Staphylococcus aureus" data_value=-12.26
structure_as_smiles=O=C(CSc1nnc2c(=O)n(-c3ccc(F)cc3)ccn12)N1CCN(c2ccc(F)cc2)CC1 target_or_test_system="Staphylococcus aureus" data_value=9.4
structure_as_smiles=Cc1c(Cl)cccc1-n1ccn2c(=O)n(Cc3ccccc3Cl)nc2c1=O target_or_test_system="Staphylococcus aureus" data_value=-12.86
structure_as_smiles=CC(C)c1ccc(NC(=O)CSc2nc3ccccc3n3cnnc23)cc1 target_or_test_system="Staphylococcus aureus" data_value=8.55
structure_as_smiles=CCc1nnc2c(S(=O)(=O)N(Cc3cccc(Cl)c3)c3ccccc3)cccn12 target_or_test_system="Staphylococcus aureus" data_value=4.22
structure_as_smiles=COc1ccc(NC(=O)Cn2nc3c4cc(-c5ccc(C)cc5)nn4ccn3c2=O)c(OC)c1 target_or_test_system="Staphylococcus aureus" data_value=1.08
structure_as_smiles=CCc1nnc2ccc(S(=O)(=O)N(Cc3ccccc3F)c3ccc(OC)cc3)cn12 target_or_test_system="Staphylococcus aureus" data_value=11.76
structure_as_smiles=CCCCn1c(=O)c2sccc2n2c(CCC(=O)NCCC34CC5CC(CC(C5)C3)C4)nnc12 target_or_test_system="Staphylococcus aureus" data_value=7.09
structure_as_smiles=COc1ccc(NC(=O)c2ccc3nn(CC(=O)Nc4ccc(C(C)C)cc4)c(=O)n3c2)cc1 target_or_test_system="Staphylococcus aureus" data_value=9.69
structure_as_smiles=CCc1nnc2c(S(=O)(=O)N(Cc3ccc(C)cc3)c3ccc(C(C)C)cc3)cccn12 target_or_test_system="Staphylococcus aureus" data_value=16.04
structure_as_smiles=O=c1c2sccc2n2c(SCc3cccc(C(F)(F)F)c3)nnc2n1Cc1ccc(F)cc1 target_or_test_system="Staphylococcus aureus" data_value=9.81
structure_as_smiles=O=C(Cn1nc2ccc(-c3ccc(Cl)cc3)nn2c1=O)N1CCN(c2ccccc2)CC1 target_or_test_system="Staphylococcus aureus" data_value=-1.88
structure_as_smiles=COC(=O)c1ccc(NC(=O)CSc2nc3ccccc3n3c(C(C)C)nnc23)cc1 target_or_test_system="Staphylococcus aureus" data_value=12.04
structure_as_smiles=O=C(Cn1nc2c3cc(-c4ccc(Cl)cc4)nn3ccn2c1=O)Nc1ccc2c(c1)OCO2 target_or_test_system="Staphylococcus aureus" data_value=8.69
structure_as_smiles=Cc1cc(C)c(NC(=O)CSc2nnc3ccc(C(=O)Nc4cccc(F)c4)cn23)c(C)c1 target_or_test_system="Staphylococcus aureus" data_value=12.67
structure_as_smiles=Cc1ccc(Oc2nccn3c(=O)n(CC(=O)Nc4ccccc4Br)nc23)cc1 target_or_test_system="Staphylococcus aureus" data_value=10.09
structure_as_smiles=CCCN(C)c1nccn2c(=O)n(CC(=O)Nc3cccc(Cl)c3F)nc12 target_or_test_system="Staphylococcus aureus" data_value=4.66
structure_as_smiles=O=C(Cn1nc2nc(Nc3ccc(F)cc3)ccn2c1=O)Nc1cc(F)ccc1F target_or_test_system="Staphylococcus aureus" data_value=11.9
structure_as_smiles=Cc1ccc(NC(=O)c2ccc3nnc(SCC(=O)Nc4ccc(Br)cc4)n3c2)cc1 target_or_test_system="Staphylococcus aureus" data_value=-2.55
structure_as_smiles=CCc1nnc2c(S(=O)(=O)N(Cc3cc(F)cc(F)c3)c3ccc(C)cc3)cccn12 target_or_test_system="Staphylococcus aureus" data_value=10.46
structure_as_smiles=O=C(Cn1nc2nc(Nc3ccc(F)cc3)ccn2c1=O)NCc1ccc(F)cc1Cl target_or_test_system="Staphylococcus aureus" data_value=7.6
structure_as_smiles=COc1ccccc1-n1ccn2c(SCc3cccc(Cl)c3)nnc2c1=O target_or_test_system="Staphylococcus aureus" data_value=-2.16
structure_as_smiles=CCCCOc1ccc(-c2cc3c4nnc(SCC(=O)Nc5cccc(C(C)=O)c5)n4ccn3n2)cc1 target_or_test_system="Staphylococcus aureus" data_value=1.68

---

- Test system: Escherichia coli
- condition-summary: Concentration 32 ug.mL-1;; ASSAY_TEST Inhibition of Bacterial Growth; detection method Absorption (OD600); MEDIA CAMHB; plate type 384well; NBS; CORNING #3640; time 18 hr
- Description: Antibacterial activity against Escherichia coli ATCC 25922 (CO-ADD:GN_001); MIC in CAMBH media using NBS plates, by OD(600)
Results with a measured potency or affinity are listed apart.
Examples of compounds with documented Inhibition follow.
observed-property: Inhibition (%)

structure_as_smiles=N#CCn1nc2n(CCC(=O)NC3CCCCC3)c(=O)c3ccccc3n2c1=O data_value=0.43
structure_as_smiles=Cc1cccc(NC(=O)CSc2nnc3c4cc(-c5ccccc5)nn4ccn23)c1C data_value=-6.36
structure_as_smiles=COc1ccc(N(Cc2ccc(Cl)cc2)S(=O)(=O)c2ccc3nncn3c2)cc1 data_value=-4.15
structure_as_smiles=Cc1ccc(NC(=O)Cn2nc3c4cc(-c5ccc(C)c(C)c5)nn4ccn3c2=O)c(C)c1 data_value=-22.36
structure_as_smiles=Cc1ccc(C)c(CSc2nnc3c(=O)n(-c4ccc(F)c(F)c4)ccn23)c1 data_value=-0.2
structure_as_smiles=Cc1ccc(Cl)cc1NC(=O)CSc1nnc2c(=O)n(-c3ccccc3)ccn12 data_value=-1.12
structure_as_smiles=COc1cccc(Oc2nccn3c(=O)n(CC(=O)Nc4ccc(C(C)C)cc4)nc23)c1 data_value=-7.16
structure_as_smiles=O=c1c2nnc(SCc3cccc(F)c3)n2ccn1-c1ccc(Br)cc1 data_value=-3.12
structure_as_smiles=O=C(Cn1nc2ccc(-c3ccccc3)nn2c1=O)Nc1ccc(Cl)c(C(F)(F)F)c1 data_value=-6.69
structure_as_smiles=COc1cccc(Oc2nccn3c(=O)n(CC(=O)Nc4ccc(OC)c(Cl)c4)nc23)c1 data_value=-5.35
structure_as_smiles=COc1ccc(CNC(=O)CSc2nnc3c4cc(-c5ccc(OC)cc5)nn4ccn23)cc1 data_value=0.23
structure_as_smiles=O=C(CSc1nnc2c(=O)n(-c3ccccc3)ccn12)Nc1cc(F)ccc1F data_value=-13.66
structure_as_smiles=Cc1nnc2ccc(S(=O)(=O)N(Cc3ccccc3Cl)c3cccc(F)c3)cn12 data_value=-5.9
structure_as_smiles=COc1cc(OC)c(NC(=O)Cn2nc3c(Sc4ccc(C)cc4C)nccn3c2=O)cc1Cl data_value=-14.71
structure_as_smiles=CCc1nnc2c(SCC(=O)Nc3cc(Cl)ccc3OC)nc3ccccc3n12 data_value=4.84
structure_as_smiles=Cc1ccc(NC(=O)Cn2nc3ccc(SC(C)(C)C)nn3c2=O)c(Cl)c1 data_value=-7.75
structure_as_smiles=CCOc1ccc(-c2nc(CSc3nc4ccccc4n4c(C(C)C)nnc34)c(C)o2)cc1 data_value=-11.72
structure_as_smiles=CCCCOc1ccc(-c2cc3c4nnc(SCC(=O)Nc5cc(F)ccc5C)n4ccn3n2)cc1 data_value=-11.69
structure_as_smiles=COc1ccc(CNC(=O)Cn2nc3c4cc(-c5ccc(Cl)cc5)nn4ccn3c2=O)cc1 data_value=4.2
structure_as_smiles=O=C(Cn1nc2ccc(SCc3ccc(Cl)cc3)nn2c1=O)Nc1ccc2c(c1)OCO2 data_value=-2.43
